Cited source: patent US20110028447A1

- tested_on: human CB1 receptor (Homo sapiens)
- Sequence (P21554 whole entry): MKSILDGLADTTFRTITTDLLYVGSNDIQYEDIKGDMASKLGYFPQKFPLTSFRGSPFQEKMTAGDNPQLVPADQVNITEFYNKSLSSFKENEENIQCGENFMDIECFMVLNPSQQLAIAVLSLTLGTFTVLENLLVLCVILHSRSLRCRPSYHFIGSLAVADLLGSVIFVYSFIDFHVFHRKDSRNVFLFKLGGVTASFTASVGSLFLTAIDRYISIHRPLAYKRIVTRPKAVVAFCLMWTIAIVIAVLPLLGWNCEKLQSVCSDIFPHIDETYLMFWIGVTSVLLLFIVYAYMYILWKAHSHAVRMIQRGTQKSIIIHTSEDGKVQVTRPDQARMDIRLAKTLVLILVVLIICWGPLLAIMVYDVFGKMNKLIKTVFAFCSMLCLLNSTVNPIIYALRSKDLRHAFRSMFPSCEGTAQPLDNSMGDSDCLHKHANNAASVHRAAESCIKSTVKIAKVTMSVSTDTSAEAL
- protocol: Human CB1 receptor binding, [3H] CP-55,940 displacement on HEK cell membranes
- Parameters: expressed in transfected cells; host or cells: HEK cells, doxycycline-induced; membrane preparation
- measurement_parameters: CB1 Ki
In this section, each of the molecules is paired with its reported Ki.
property_measured: Ki (µM)

                                   molecule  units_label  value_comparator  measured_result
0  CC(C)(C)[C@H](NC(=O)c1nn(Cc2ccc(C#N)cc2)c2ccc(Cl)cc12)C(N)=O           µM                 =            0.104
1  CC(C)(C)[C@H](NC(=O)c1nn(Cc2ccc(C#N)cc2)c2c(F)cccc12)C(=O)NCCCO           µM                 =          0.00814
2  CC(C)(C)C(NC(=O)c1nn(Cc2ccc(C#N)cc2F)c2ccccc12)C(=O)NCC(N)=O (stereo not shown)           µM                 =           0.0141
3  CC(C)(C)[C@H](NC(=O)c1nn(Cc2ccc(C#N)cc2)c2ccccc12)C(=O)NC[C@@H](O)C(N)=O           µM                 >              0.4
4  CC(C)(C)[C@H](NC(=O)c1nn(Cc2ccc(F)cc2)c2ccccc12)C(=O)NCC1CCC(=O)N1 (stereo partly shown)           µM                 =           0.0131
5  CC(C)(C)[C@H](NC(=O)c1nn(Cc2ccc(C#N)cc2F)c2c(F)cccc12)C(=O)NC[C@@H](O)CO           µM                 =            0.241
6  CC(C)(C)C(NC(=O)c1nn(Cc2ccc(F)cc2)c2c(F)cccc12)C(=O)NCCO (stereo not shown)           µM                 =          0.00028
